test system: Escherichia coli TOP10; assay: shrunken log2 fold change of peptide-encoding DNA abundance (4.5 h post-induction vs induction); higher = less antimicrobial activity (less host growth inhibition); details: time post-induction: 4.5 h; library: site-saturation at positions 5, 18, 19, 20
Label class 1 when shrunken log2 fold change is at or above 0.1; otherwise label class 0.

### Prompt Record `RRIRMRPPRLPRPRPRPEDQPRP` ; criterion: shrunken log2 fold change no lower than 0.1. Met?
### Response class 0

### Prompt Record `RRIRCRPPRLPRPRPRPVLHPRP` ; criterion: shrunken log2 fold change no lower than 0.1. Met?
### Response class 0

### Prompt Record `RRIRSRPPRLPRPRPRPPTEPRP` ; criterion: shrunken log2 fold change no lower than 0.1. Met?
### Response class 1

### Prompt Record `RRIRWRPPRLPRPRPRPEEKPRP` ; criterion: shrunken log2 fold change no lower than 0.1. Met?
### Response class 1

### Prompt Record `RRIRVRPPRLPRPRPRPESTPRP` ; criterion: shrunken log2 fold change no lower than 0.1. Met?
### Response class 1

### Prompt Record `RRIRHRPPRLPRPRPRPRIVPRP` ; criterion: shrunken log2 fold change no lower than 0.1. Met?
### Response class 0

### Prompt Record `RRIRARPPRLPRPRPRPQRGPRP` ; criterion: shrunken log2 fold change no lower than 0.1. Met?
### Response class 1

---

Record form. Attribute: shrunken log2 fold change. Fill in for each entry.
test system: Escherichia coli TOP10; test: shrunken log2 fold change of peptide-encoding DNA abundance (4.5 h post-induction vs induction); higher = less antimicrobial activity (less host growth inhibition); details: time post-induction: 4.5 h; library: site-saturation at positions 5, 18, 19, 20;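 further: peptides expressed intracellularly from a pBAD plasmid library in pooled LB shake-flask culture, induced with 0.3% L-arabinose, DNA abundance read by NGS, three biological replicates, DESeq2 with apeglm shrinkage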
Answer field: number only, no words.

### Prompt Which shrunken log2 fold change value is on record for `RRIRSRPPRLPRPRPRPKLCPRP` ?
### Response 0.0502

### Prompt Which shrunken log2 fold change value is on record for `RRIRGRPPRLPRPRPRPPHYPRP` ?
### Response 0.523

### Prompt Which shrunken log2 fold change value is on record for `RRIRFRPPRLPRPRPRPDRGPRP` ?
### Response 0.0145

### Prompt Which shrunken log2 fold change value is on record for `RRIRPRPPRLPRPRPRPMGCPRP` ?
### Response -0.0927

### Prompt Which shrunken log2 fold change value is on record for `RRIRYRPPRLPRPRPRPKNQPRP` ?
### Response -0.777

### Prompt Which shrunken log2 fold change value is on record for `RRIRLRPPRLPRPRPRPWFYPRP` ?
### Response -0.785

### Prompt Which shrunken log2 fold change value is on record for `RRIRNRPPRLPRPRPRPAKQPRP` ?
### Response -0.0201

### Prompt Which shrunken log2 fold change value is on record for `RRIRRRPPRLPRPRPRPVKEPRP` ?
### Response -0.128

### Prompt Which shrunken log2 fold change value is on record for `RRIRPRPPRLPRPRPRPDPKPRP` ?
### Response 0.367

### Prompt Which shrunken log2 fold change value is on record for `RRIRPRPPRLPRPRPRPYTHPRP` ?
### Response -1.35

### Prompt Which shrunken log2 fold change value is on record for `RRIRVRPPRLPRPRPRPNVVPRP` ?
### Response -0.109

### Prompt Which shrunken log2 fold change value is on record for `RRIRLRPPRLPRPRPRPLCKPRP` ?
### Response -0.398

### Prompt Which shrunken log2 fold change value is on record for `RRIRIRPPRLPRPRPRPYYMPRP` ?
### Response -0.983

### Prompt Which shrunken log2 fold change value is on record for `RRIRTRPPRLPRPRPRPKHQPRP` ?
### Response 0.219

### Prompt Which shrunken log2 fold change value is on record for `RRIRWRPPRLPRPRPRPLSEPRP` ?
### Response 0.104

### Prompt Which shrunken log2 fold change value is on record for `RRIRIRPPRLPRPRPRPCVYPRP` ?
### Response -0.227

### Prompt Which shrunken log2 fold change value is on record for `RRIRGRPPRLPRPRPRPYTYPRP` ?
### Response -0.0842

### Prompt Which shrunken log2 fold change value is on record for `RRIRQRPPRLPRPRPRPGDSPRP` ?
### Response -0.0573

### Prompt Which shrunken log2 fold change value is on record for `RRIRGRPPRLPRPRPRPMQHPRP` ?
### Response 1.24

### Prompt Which shrunken log2 fold change value is on record for `RRIRCRPPRLPRPRPRPFIIPRP` ?
### Response -0.577

### Prompt Which shrunken log2 fold change value is on record for `RRIRQRPPRLPRPRPRPDEKPRP` ?
### Response 0.02

### Prompt Which shrunken log2 fold change value is on record for `RRIRHRPPRLPRPRPRPHQIPRP` ?
### Response 0.0658

### Prompt Which shrunken log2 fold change value is on record for `RRIRMRPPRLPRPRPRPGPSPRP` ?
### Response 1.23

### Prompt Which shrunken log2 fold change value is on record for `RRIRHRPPRLPRPRPRPLREPRP` ?
### Response 0.819

### Prompt Which shrunken log2 fold change value is on record for `RRIRVRPPRLPRPRPRPISFPRP` ?
### Response 0.0233

### Prompt Which shrunken log2 fold change value is on record for `RRIRYRPPRLPRPRPRPAITPRP` ?
### Response -0.933

### Prompt Which shrunken log2 fold change value is on record for `RRIRQRPPRLPRPRPRPCITPRP` ?
### Response -0.167

### Prompt Which shrunken log2 fold change value is on record for `RRIRCRPPRLPRPRPRPPQSPRP` ?
### Response 0.839

### Prompt Which shrunken log2 fold change value is on record for `RRIRGRPPRLPRPRPRPTFKPRP` ?
### Response 0.538

### Prompt Which shrunken log2 fold change value is on record for `RRIRRRPPRLPRPRPRPAFDPRP` ?
### Response 0.522

### Prompt Which shrunken log2 fold change value is on record for `RRIRFRPPRLPRPRPRPEPGPRP` ?
### Response 0.534

### Prompt Which shrunken log2 fold change value is on record for `RRIRYRPPRLPRPRPRPYATPRP` ?
### Response -0.175
